GI for assorted molecules
Test system: SGC-7901
assayName: Growth inhibition of Homo sapiens (human) SGC7901 cells by MTT assay
Assay type: functional

[
  {
    "molecule": "CC(=O)Oc1ccc(-c2coc3cc(OC(C)=O)cc(O)c3c2=O)cc1 [4',7-DIACETOXY-5-HYDROXYGENISTEIN]",
    "GI": "11.24 µM"
  },
  {
    "molecule": "O=c1c(-c2ccc(O)cc2)coc2cc(OC(F)F)cc(O)c12",
    "GI": "4.59 µM"
  },
  {
    "molecule": "O=c1c(-c2ccc(OC(F)F)cc2)coc2cc(OC(F)F)cc(O)c12",
    "GI": "5.54 µM"
  },
  {
    "molecule": "O=c1c(-c2ccc(O)cc2)coc2cc(O)cc(O)c12",
    "GI": "5.78 µM"
  }
]
